- study_system: Neuromedin-U receptor 2 (Homo sapiens)
- assay_comment: Agonist activity at human NMUR2 expressed in CHO cells by calcium mobilization assay
- Assay type: functional, cell-based
reported_metric: EC50 (nM)
Quick note: give the figure in nM, leave out the unit.

Briefly, EC50 measured for H-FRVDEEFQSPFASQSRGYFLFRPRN-NH2 : 2.5

###

- study_system: Neuromedin-U receptor 2 (Homo sapiens)
- assay_comment: Agonist activity at human NMUR2 expressed in HEK293 cells at 1 to 100 nM by calcium mobilization assay relative to NMU
- Type: functional, cell-based
Activity calls are given as the source filed them. The calls are words filed in the database; no cut-off is given here. Where a SMILES comes first, the peptide text is derived from it. [ ]: non-standard residue; d: D form. The star is where a group is joined. Butanoyl(4-cHex) = O=C(CCCC1CCCCC1)*; Propanoyl(3-cHex) = O=C(CCC1CCCCC1)*; Butanoyl(4-Ph) = O=C(CCCc1ccccc1)*; Hydrocinnamoyl = O=C(CCc1ccccc1)*; hPhe = N[C@@H](CCc1ccccc1)C(=O)O; Tic = O=C(O)[C@@H]1Cc2ccccc2CN1; Cha = N[C@@H](CC1CCCCC1)C(=O)O; Agp = N=C(N)NC[C@H](N)C(=O)O; Pip = O=C(O)[C@@H]1CCCCN1; Nle = CCCC[C@H](N)C(=O)O; Dab = NCC[C@H](N)C(=O)O; Nva = CCC[C@H](N)C(=O)O; Dap = NC[C@H](N)C(=O)O
reported_metric: Activity

Record excerpt, results attached:
CC(C)C[C@H](NC(=O)CCc1ccccc1)C(=O)N[C@@H](Cc1ccccc1)C(=O)N[C@@H](CCCNC(=N)N)C(=O)N1CCC[C@H]1C(=O)N[C@@H](CCCNC(=N)N)C(=O)N[C@@H](CCC(N)=O)C(N)=O (Hydrocinnamoyl-LFRPRQ-NH2) = inactive
CC(C)C[C@H](NC(=O)CCCC1CCCCC1)C(=O)N[C@@H](Cc1ccccc1)C(=O)N[C@@H](CCCNC(=N)N)C(=O)N1CCC[C@H]1C(=O)N[C@@H](CCCNC(=N)N)C(=O)N[C@@H](CC(N)=O)C(N)=O ({Butanoyl(4-cHex)}-LFRPRN-NH2) = Active
CCC[C@H](NC(=O)[C@H](CC(C)C)NC(=O)CCC1CCCCC1)C(=O)N[C@@H](CN)C(=O)N1CCC[C@H]1C(=O)N[C@@H](CCCNC(=N)N)C(=O)N[C@@H](CC(N)=O)C(N)=O ({Propanoyl(3-cHex)}-L[Nva][Dap]PRN-NH2) = Active
CC(C)C[C@H](NC(=O)[C@@H]1Cc2ccccc2CN1)C(=O)N[C@@H](Cc1ccccc1)C(=O)N[C@@H](CCCNC(=N)N)C(=O)N1CCC[C@H]1C(=O)N[C@@H](CCCNC(=N)N)C(=O)N[C@@H](CC(N)=O)C(N)=O (H-[Tic]LFRPRN-NH2) = Active

Briefly, Activity measured for CC(C)C[C@H](NC(=O)CCc1ccccc1)C(=O)N[C@@H](Cc1ccccc1)C(=O)N[C@@H](CN)C(=O)N1CCC[C@H]1C(=O)N[C@@H](CCCNC(=N)N)C(=O)N[C@@H](CC(N)=O)C(N)=O (Hydrocinnamoyl-LF[Dap]PRN-NH2) : Active

Briefly, Activity measured for CC[C@H](C)[C@H](NC(=O)[C@H](CC(C)C)NC(=O)CCC1CCCCC1)C(=O)N[C@@H](CN)C(=O)N1CCC[C@H]1C(=O)N[C@@H](CCCNC(=N)N)C(=O)N[C@@H](CC(N)=O)C(N)=O ({Propanoyl(3-cHex)}-LI[Dap]PRN-NH2) : Active

Briefly, Activity measured for CC(C)C[C@H](NC(=O)CCc1ccccc1)C(=O)N[C@@H](Cc1ccccc1)C(=O)N[C@@H](CNC(=N)N)C(=O)N1CCC[C@H]1C(=O)N[C@@H](CCCNC(=N)N)C(=O)N[C@@H](CC(N)=O)C(N)=O (Hydrocinnamoyl-LF[Agp]PRN-NH2) : Active

Briefly, Activity measured for CC(C)C[C@H](NC(=O)CCc1ccccc1)C(=O)N[C@@H](Cc1ccccc1)C(=O)N[C@@H](CCCNC(=N)N)C(=O)N1CCC[C@H]1C(=O)N[C@@H](CCCNC(=N)N)C(=O)N[C@@H](CC(N)=O)C(N)=O (Hydrocinnamoyl-LFRPRN-NH2) : Active

Briefly, Activity measured for CC(C)C[C@H](NC(=O)CCc1ccccc1)C(=O)N[C@@H](Cc1ccccc1)C(=O)N[C@@H](CCN)C(=O)N1CCC[C@H]1C(=O)N[C@@H](CCCNC(=N)N)C(=O)N[C@@H](CC(N)=O)C(N)=O (Hydrocinnamoyl-LF[Dab]PRN-NH2) : Active

Briefly, Activity measured for CC(C)C[C@H](NC(=O)[C@H](CCCNC(=N)N)NC(=O)[C@@H]1CCCN1C(=O)[C@H](CCCNC(=N)N)NC(=O)[C@H](Cc1ccccc1)NC(=O)[C@H](CC(C)C)NC(=O)CCc1ccccc1)C(N)=O (Hydrocinnamoyl-LFRPRL-NH2) : inactive

Briefly, Activity measured for CC(C)C[C@H](NC(=O)CCc1ccccc1)C(=O)N[C@@H](CCc1ccccc1)C(=O)N[C@@H](CCCNC(=N)N)C(=O)N1CCC[C@H]1C(=O)N[C@@H](CCCNC(=N)N)C(=O)N[C@@H](CC(N)=O)C(N)=O (Hydrocinnamoyl-L[hPhe]RPRN-NH2) : inactive

Briefly, Activity measured for CCCC[C@H](NC(=O)[C@H](CC(C)C)NC(=O)CCC1CCCCC1)C(=O)N[C@@H](CN)C(=O)N1CCC[C@H]1C(=O)N[C@@H](CCCNC(=N)N)C(=O)N[C@@H](CC(N)=O)C(N)=O ({Propanoyl(3-cHex)}-L[Nle][Dap]PRN-NH2) : Active

Briefly, Activity measured for CC(C)C[C@H](NC(=O)CCCc1ccccc1)C(=O)N[C@@H](Cc1ccccc1)C(=O)N[C@@H](CCCNC(=N)N)C(=O)N1CCC[C@H]1C(=O)N[C@@H](CCCNC(=N)N)C(=O)N[C@@H](CC(N)=O)C(N)=O ({Butanoyl(4-Ph)}-LFRPRN-NH2) : Active

Briefly, Activity measured for CC(C)C[C@H](NC(=O)CCc1ccccc1)C(=O)N[C@@H](Cc1ccccc1)C(=O)N[C@@H](CCCNC(=N)N)C(=O)N1CCCC[C@H]1C(=O)N[C@@H](CCCNC(=N)N)C(=O)N[C@@H](CC(N)=O)C(N)=O (Hydrocinnamoyl-LFR[Pip]RN-NH2) : Active

Briefly, Activity measured for CC(C)C[C@H](NC(=O)CCC1CCCCC1)C(=O)N[C@@H](CC1CCCCC1)C(=O)N[C@@H](CCCNC(=N)N)C(=O)N1CCC[C@H]1C(=O)N[C@@H](CCCNC(=N)N)C(=O)N[C@@H](CC(N)=O)C(N)=O ({Propanoyl(3-cHex)}-L[Cha]RPRN-NH2) : Active

Briefly, Activity measured for CC(C)C[C@H](NC(=O)CCc1ccccc1)C(=O)N[C@@H](Cc1ccccc1)C(=O)N[C@@H](CCCNC(=N)N)C(=O)N1CCC[C@H]1C(=O)N[C@@H](CCCNC(=N)N)C(=O)N[C@@H](CCN)C(N)=O (Hydrocinnamoyl-LFRPR[Dab]-NH2) : inactive

###

- study_system: Neuromedin-U receptor 2 (Homo sapiens, UniProt Q9GZQ4)
- Sequence (Q9GZQ4 whole entry): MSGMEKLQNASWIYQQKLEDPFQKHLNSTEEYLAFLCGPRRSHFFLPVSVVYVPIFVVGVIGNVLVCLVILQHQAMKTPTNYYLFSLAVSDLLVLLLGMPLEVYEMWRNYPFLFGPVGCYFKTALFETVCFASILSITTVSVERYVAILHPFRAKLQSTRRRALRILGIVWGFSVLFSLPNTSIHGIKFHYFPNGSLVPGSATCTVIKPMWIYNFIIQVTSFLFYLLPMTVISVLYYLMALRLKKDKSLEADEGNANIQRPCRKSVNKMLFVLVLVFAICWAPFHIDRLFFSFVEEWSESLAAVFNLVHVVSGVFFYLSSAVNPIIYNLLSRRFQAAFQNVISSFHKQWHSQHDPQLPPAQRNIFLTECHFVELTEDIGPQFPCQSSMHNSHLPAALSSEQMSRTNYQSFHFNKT
- assay_comment: Agonist activity at human NMUR2 expressed in HEK293 cells at 1 to 100 nM by calcium mobilization assay relative to NMU
- Type: functional, cell-based
The source made the active and inactive calls. The rule behind the calls is not given here. Where a SMILES comes first, the peptide text is derived from it. [ ]: non-standard residue; d: D form. The star is where a group is joined. Propanoyl(3-cHex) = O=C(CCC1CCCCC1)*; Hydrocinnamoyl = O=C(CCc1ccccc1)*; Cha = N[C@@H](CC1CCCCC1)C(=O)O; Chg = N[C@H](C(=O)O)C1CCCCC1; Phg = N[C@H](C(=O)O)c1ccccc1; Dap = NC[C@H](N)C(=O)O
The reply should be one of these categories: TRUE = active, FALSE = inactive

CC(C)C[C@H](NC(=O)CCc1ccccc1)C(=O)N[C@H](C(=O)N[C@@H](CCCNC(=N)N)C(=O)N1CCC[C@H]1C(=O)N[C@@H](CCCNC(=N)N)C(=O)N[C@@H](CC(N)=O)C(N)=O)c1ccccc1 (Hydrocinnamoyl-L[Phg]RPRN-NH2) = FALSE
CC(C)C[C@H](NC(=O)CCc1ccccc1)C(=O)N[C@@H](Cc1ccccc1)C(=O)N[C@@H](CCCCN)C(=O)N1CCC[C@H]1C(=O)N[C@@H](CCCNC(=N)N)C(=O)N[C@@H](CC(N)=O)C(N)=O (Hydrocinnamoyl-LFKPRN-NH2) = FALSE
CC(C)C[C@H](NC(=O)CCC1CCCCC1)C(=O)N[C@@H](CC1CCCCC1)C(=O)N[C@@H](CN)C(=O)N1CCC[C@H]1C(=O)N[C@@H](CCCNC(=N)N)C(=O)N[C@@H](CC(N)=O)C(N)=O ({Propanoyl(3-cHex)}-L[Cha][Dap]PRN-NH2) = TRUE

Now turn to the next molecule.
Q. For this molecule, state the assay outcome: CC(C)C[C@H](NC(=O)CCC1CCCCC1)C(=O)N[C@H](C(=O)N[C@@H](CN)C(=O)N1CCC[C@H]1C(=O)N[C@@H](CCCNC(=N)N)C(=O)N[C@@H](CC(N)=O)C(N)=O)C1CCCCC1 ({Propanoyl(3-cHex)}-L[Chg][Dap]PRN-NH2)
A. TRUE
